Target: UniProt P04585
Assay: biochemical
Details: Table I; Dose 0.123 μM; read-out: Protease % Inhib
Where a name gives a salt, the structure may show the parent alone.
Assay metric: inhibition at 0.123 µM (%)
Number only, in %; omit the unit.

Here is how some molecules turned out for inhibition at 0.123 µM.
>>> value_reported("CCCC1(CCC)CC(O)=C(C(CC)c2cccc(NS(=O)(=O)c3ccc(C#N)cc3)c2)C(=O)O1 (stereo not drawn)")
85.9
>>> value_reported("CCCC1(CCC)CC(O)=C(C(CC)c2cccc(NS(=O)(=O)c3cn(C)cn3)c2)C(=O)O1 (stereo not drawn)")
98.4
>>> value_reported("O=c1oc(C(CC2CC2)CC2CC2)cc(O)c1C(c1cccc(NS(=O)(=O)c2cccc3cccnc23)c1)C1CC1 (stereo not drawn)")
94.2
>>> value_reported("CCCC1CCCCCc2c1oc(=O)c(C(c1cccc(NS(=O)(=O)c3ccccc3)c1)C1CC1)c2O (stereo not drawn)")
75.4
>>> value_reported("CCCC1(CCC)CC(O)=C(C(c2cccc(NS(=O)(=O)c3ccc(F)cc3)c2)C2CC2)C(=O)O1 (stereo not drawn)")
98.7
>>> value_reported("CCC(CCNC(=O)CCCCCCC(=O)N(C)CCS(=O)(=O)O)c1cc(O)c(C(c2cccc(NS(=O)(=O)c3cn(C)cn3)c2)C2CC2)c(=O)o1 (stereo not drawn) [Example 110, monosodium salt]")
77.9

Exercise: inhibition at 0.123 µM for O=c1oc2c(c(O)c1C(c1cccc(CS(=O)(=O)c3ccc(F)cc3)c1)C1CC1)CCCCCC2 (stereo not drawn) ?
Solution: 75.7

Exercise: inhibition at 0.123 µM for CCCC1(CCc2ccccc2)CC(O)=C(C(c2cccc(NS(=O)(=O)c3cccc4cccnc34)c2)C2CC2)C(=O)O1 (stereo not drawn) ?
Solution: 73

Exercise: inhibition at 0.123 µM for CCC(CC1CCOCC1)c1cc(O)c(C(c2cccc(NS(=O)(=O)c3cn(C)cn3)c2)C2CC2)c(=O)o1 (stereo not drawn) ?
Solution: 33.2

Exercise: inhibition at 0.123 µM for CCC(C1=C(O)CC(CC(C)C)(CC(C)C)OC1=O)c1cccc(NS(=O)(=O)c2cn(C)cn2)c1 (stereo not drawn) ?
Solution: 66.3

Exercise: inhibition at 0.123 µM for CCC(Cc1ccccc1)c1cc(O)c(C(c2cccc(NS(=O)(=O)c3cn(C)cn3)c2)C2CC2)c(=O)o1 (stereo not drawn) ?
Solution: 71.7

Exercise: inhibition at 0.123 µM for O=c1oc(C(CC2CC2)CC2CC2)cc(O)c1C(c1cccc(NS(=O)(=O)c2ncc[nH]2)c1)C1CC1 (stereo not drawn) ?
Solution: 87.1

Exercise: inhibition at 0.123 µM for CC[C@H](Cc1ccccc1)c1cc(O)c(C(c2cccc(NS(=O)(=O)c3ncc[nH]3)c2)C2CC2)c(=O)o1 (stereo partly drawn) ?
Solution: 77.5

Exercise: inhibition at 0.123 µM for CC[C@H](Cc1ccccc1)c1cc(O)c(C(c2cccc(NS(=O)(=O)c3nc4ccccc4[nH]3)c2)C2CC2)c(=O)o1 (stereo partly drawn) ?
Solution: 68.1

Exercise: inhibition at 0.123 µM for CC(C)CC(c1cccc(NS(=O)(=O)c2cn(C)cn2)c1)c1c(O)c2c(oc1=O)CCCCCC2 (single isomer, unassigned) [Example 8] ?
Solution: 99.2

Exercise: inhibition at 0.123 µM for CCC(CCOCCOC)c1cc(O)c(C(c2cccc(NS(=O)(=O)c3ccc(C#N)cc3)c2)C2CC2)c(=O)o1 (stereo not drawn) ?
Solution: 60.9

Exercise: inhibition at 0.123 µM for CCCC1(CCc2ccccc2)CC(O)=C(C(c2cccc(NS(=O)(=O)c3cn(C)cn3)c2)C2CC2)C(=O)O1 (stereo not drawn) ?
Solution: 86.8

Exercise: inhibition at 0.123 µM for CCCC1(CCc2ccc(F)cc2)CC(O)=C(C(c2cccc(NS(=O)(=O)c3ccc(C#N)cn3)c2)C(C)(C)C)C(=O)O1 (stereo not drawn) ?
Solution: 94

Exercise: inhibition at 0.123 µM for CCCC1(CCC)CC(O)=C(C(c2cccc(NS(=O)(=O)c3ccc(C#N)cc3)c2)C2CC2)C(=O)O1 (stereo not drawn) ?
Solution: 101

Exercise: inhibition at 0.123 µM for CCCC1(CCC)CC(O)=C(C(c2cccc(NS(=O)(=O)c3cn(C)cn3)c2)C2CC2)C(=O)O1 (single isomer, unassigned) [Example 56] ?
Solution: 104

Exercise: inhibition at 0.123 µM for O=c1oc(C(CC2CC2)CC2CC2)cc(O)c1C(c1cccc(NS(=O)(=O)c2ccc3ccccc3n2)c1)C1CC1 (stereo not drawn) ?
Solution: 65.5

Exercise: inhibition at 0.123 µM for CC[C@H](Cc1ccccc1)c1cc(O)c(C(c2cccc(NS(=O)(=O)c3cn(C)cn3)c2)C2CC2)c(=O)o1 (single isomer, unassigned) [Example 138] ?
Solution: 101

Exercise: inhibition at 0.123 µM for CC[C@H](Cc1ccccc1)c1cc(O)c(C(c2cccc(NS(=O)(=O)c3cn(C)cn3)c2)C2CC2)c(=O)o1 (single isomer, unassigned) [Example 137] ?
Solution: 98.8

Exercise: inhibition at 0.123 µM for Cn1ccnc1S(=O)(=O)Nc1cccc(C(c2c(O)cc(C(CC3CC3)CC3CC3)oc2=O)C2CC2)c1 (stereo not drawn) ?
Solution: 103

Exercise: inhibition at 0.123 µM for CCCC1(CCC)CC(O)=C(C(CC)c2cccc(NS(=O)(=O)c3cccc4cccnc34)c2)C(=O)O1 (stereo not drawn) ?
Solution: 85.6

###

Recorded PROTEASE % INHIB. for the following molecules
Molecular target: UniProtKB P04585
Experiment: biochemical
Details: Table II; enzyme HIV-1; DOSE 3.300 (unit not given)
Description: The HIV protease screening assay is based on fluorescently labeled substrate which can be resolved from nonlabeled cleavage product using special beads coated with streptavidin. […] The labeled cleavage product is separated from the unreacted substrate via filtration and is read on the Idexx screen machine. The data are analyzed by appropriate computer algorithms to ascertain percent inhibition values.
Number only, in %; omit the unit.

Here is how some molecules turned out for PROTEASE % INHIB..
>>> value_reported("CCCC1(CCc2ccccc2)CC(O)=C(C(c2cccc(NS(=O)(=O)c3ccc(C#N)cn3)c2)C2CC2)C(=O)O1 (stereo not drawn)")
96.5
>>> value_reported("CCCC1(CCc2ccccc2)CC(O)=C(C(c2cccc(NS(=O)(=O)c3ccccn3)c2)C(C)(C)C)C(=O)O1 (single isomer, unassigned)")
96.91

Lab note: next molecule to report on.
Exercise: PROTEASE % INHIB. for CCC(C1=C(O)CC(CC(C)C)(CC(C)C)OC1=O)c1cccc(NS(=O)(=O)c2ccc(C#N)cn2)c1 (racemic) ?
Solution: 100.47

###

Target: HIV-1 protease (Human immunodeficiency virus type 1 group M subtype B, UniProt P04585)
Test: biochemical
Details: Table I; read-out: HIV Protease FITC Assay Ki
Recorded Ki for the following compounds
Number only, in nM; omit the unit.

>>> value_reported("O=c1oc(C(CC2CC2)CC2CC2)cc(O)c1C(c1cccc(NS(=O)(=O)c2ccc3ccccc3n2)c1)C1CC1 (stereo not shown)")
1.72
>>> value_reported("CCCC1(CCc2ccccc2)CC(O)=C(C(c2cccc(NS(=O)(=O)c3cccc4cccnc34)c2)C2CC2)C(=O)O1 (stereo not shown)")
0.95

Exercise: Record lookup: for HIV-1 protease (Human immunodeficiency virus type 1 group M subtype B, UniProt P04585), what Ki belongs to CCCC1(CCc2ccccc2)CC(O)=C(C(c2cccc(NS(=O)(=O)c3ccc(F)cc3)c2)C2CC2)C(=O)O1 (stereo not shown) ?
Solution: 3.5

Exercise: Record lookup: for HIV-1 protease (Human immunodeficiency virus type 1 group M subtype B, UniProt P04585), what Ki belongs to CCCC1(CCC)CC(O)=C(C(CC)c2cccc(NS(=O)(=O)c3cccc4cccnc34)c2)C(=O)O1 (stereo not shown) [Example 43] ?
Solution: 3.65

###

Molecular target: HIV-1 protease (Human immunodeficiency virus type 1 group M subtype B)
Assay: biochemical
Details: Table I; Dose 30.000 μM
Assay metric: PROTEASE % INHIB.
Include the unit after the number when you answer.

Exercise: PROTEASE % INHIB. for CCCC1(CCC)CC(O)=C(C(CC)c2cccc(NS(=O)(=O)c3cccc4cccnc34)c2)C(=O)O1 (single isomer, unassigned) ?
Solution: 91.99%

Exercise: PROTEASE % INHIB. for CCCC1(CCC)CC(O)=C(C(CC)c2cccc(NS(=O)(=O)c3cn(C)cn3)c2)C(=O)O1 (single isomer, unassigned) ?
Solution: 85.88%

Exercise: PROTEASE % INHIB. for CCCC1(CCC)CC(O)=C(C(c2cccc(NS(=O)(=O)c3cn(C)cn3)c2)C2CC2)C(=O)O1 (single isomer, unassigned) ?
Solution: 115.02%

Exercise: PROTEASE % INHIB. for CC[C@H](Cc1ccccc1)c1cc(O)c(C(c2cccc(NS(=O)(=O)c3ccccn3)c2)C2CC2)c(=O)o1 (single isomer, unassigned) ?
Solution: 106.77%
